# Test system: MDA-MB-468
# Assay details: normalised viability (% of control), CellTiter-Blue; higher = more viable cells (about 100 = DMSO control)
# Assay setup: 100 nM; incubation time: 72 h
Some molecules, each annotated with its measured normalised viability.
Test readout: normalised viability (%)

[[record]]
molecule = "CCCCCCCCc1ccc(CCC(N)(CO)CO)cc1 [Fingolimod]"
test_readout = "normalised viability"
reported_measurement = 101

[[record]]
molecule = "CN(C)CCN1C(=O)c2cccc3cc(N)cc(c23)C1=O [Amonafide]"
test_readout = "normalised viability"
reported_measurement = 113

[[record]]
molecule = "CC(C)(C#N)c1cc(Cn2cncn2)cc(C(C)(C)C#N)c1 [Anastrozole]"
test_readout = "normalised viability"
reported_measurement = 107

[[record]]
molecule = "O=C(O)CCCc1ccc(N(CCCl)CCCl)cc1 [Chlorambucil]"
test_readout = "normalised viability"
reported_measurement = 99.8

